These data points were gathered from patent US8772480B2.

Entries annotated with measured IC50
# System: phosphorylation of Akt at Serine 473 in U87 MG cells
# assay-name: cells
# cond: Homo sapiens, U-87 MG, 2 h, read-out: U87Cell IC50, pAkt (Ser 473), U87 MG cells, two hours with compound

# count of solved cases: 2
structure=COc1ccc(Nc2nc(-c3ccc(F)cc3)ncc2-c2nc(C)nc(N)n2)cn1 endpoint_label=IC50 assay_value="> 10 µM"
structure=COc1ccc(Nc2ncc(C(C)=O)nc2-c2cc(N)nc(C)n2)cn1 endpoint_label=IC50 assay_value="> 10 µM"

Now consider the entry below.
Qu. State IC50 on phosphorylation of Akt at Serine 473 in U87 MG cells. Entry: "COc1ccc(Nc2nc(-c3ccncc3)ncc2-c2nc(C)nc(N)n2)cn1"
Ans. > 10 µM
